method-notes: Cytotoxicity in HeLa cells (ATP content, ATPlite kit)
Assay type: cell-based
condition-label: human, TOX HELA CC50
# maps each entry to its CC50 at 3 days
Report the figure in µM without appending any unit label.

These solved cases illustrate the format of a correct answer.
INSERT INTO assay_data (compound, parameter_measured, unit_name, value_reported) VALUES
  ('COc1cc(C(=O)NC[C@@](O)(c2cc(C(C)(C)O)c(F)c(-c3ccc(F)cc3)n2)C2C[C@H]2F)cc2cc(C)nnc12 (single isomer, unassigned)', 'CC50 at 3 days', 'µM', 23),
  ('COc1cc(C(=O)NC[C@](O)(c2cc(C(C)(C)O)c(F)c(-c3ccc(F)cc3)n2)C2CC2)cc2cc(C(F)F)nnc12', 'CC50 at 3 days', 'µM', 20),
  ('COc1cc(C(=O)NC[C@](O)(c2cc(C(C)(C)O)cc(-c3ccc(F)cc3)n2)C2CC2)cc2cc(C)nnc12', 'CC50 at 3 days', 'µM', 23),
  ('COc1cc(C(=O)NC[C@@](O)(c2cc(C(C)(C)O)c(F)c(-c3ccc(F)cc3)n2)C2CC2(C)C)cc2cc(C)nnc12 (single isomer, unassigned)', 'CC50 at 3 days', 'µM', 12),
  ('COc1cc(C(=O)NC[C@](O)(c2cc(C(C)(C)O)cc(-c3ccc(F)cc3)n2)C(C)(C)F)cc2cc(C)nnc12', 'CC50 at 3 days', 'µM', 50);

Please find the next compound below.
In: Could you share which CC50 at 3 days value was measured for COc1cc(C(=O)NC[C@](O)(c2cc(C(C)(C)NS(C)(=O)=O)c(Cl)c(-c3ccc(F)cc3)n2)C(F)(F)F)cc2cc(C)nnc12 ?
Out: 51

Reference source: patent US20230203004A1
